// reported pIC50 for each item listed
test-target: UniProtKB P60484
method-summary: PTEN Inhibition Assay: IC50 Determinations
Assay type: biochemical
run-parameters: Table 29; read-out: PTEN IC50
To interpret pIC50, take it as minus log10 of a concentration measured in moles per litre.

Use the examples below as a reference point.
structure-smiles: COc1cccc(OCC(=O)Nc2ccc3c(c2)C(=O)C(=O)c2ccccc2-3)c1
number: 6.39
//
structure-smiles: Cc1ccc(C(=O)Nc2ccc3c(c2)C(=O)C(=O)N3)cc1
number: 4.66
//
structure-smiles: O=C1C(=O)N(Cc2ccc(Cl)cc2Cl)c2ccc([N+](=O)[O-])cc21
number: 5.34

Prompt: Entry under review: COc1ccc(OCC(=O)Nc2ccc3c(c2)C(=O)C(=O)c2ccccc2-3)cc1 . Reported pIC50?
Completion: 6.52

Prompt: Entry under review: O=C(COc1ccccc1)Nc1ccc2c(c1)C(=O)C(=O)N2 . Reported pIC50?
Completion: 4.72

Prompt: Entry under review: CC(C)(C)c1ccc(C(=O)Nc2ccc3c(c2)C(=O)C(=O)c2ccccc2-3)cc1 . Reported pIC50?
Completion: 4.84

Prompt: Entry under review: O=C1Nc2ccc(Cl)cc2C1=O . Reported pIC50?
Completion: 4.09

Prompt: Entry under review: CC(C)c1ccccc1OCC(=O)Nc1ccc2c(c1)C(=O)C(=O)c1ccccc1-2 . Reported pIC50?
Completion: 6.36

Prompt: Entry under review: COc1ccccc1OCC(=O)Nc1ccc2c(c1)C(=O)C(=O)c1ccccc1-2 . Reported pIC50?
Completion: 6.26

----------
test-target: PTP1B (Homo sapiens, UniProt P18031)
method-summary: PTP1B Inhibition Assay: IC50 Determinations
Assay type: biochemical
pIC50: −log10 of the molar value.
// reported pIC50 for each item listed

Use the examples below as a reference point.
compound: Cc1cc(C)cc(S(=O)(=O)Nc2ccc3c(c2)C(=O)C(=O)c2ccccc2-3)c1
property-label: pIC50
result: > 5.00
//
compound: O=C1Nc2ccc(Br)cc2C1=O
property-label: pIC50
result: 4.00 to 5.00
//
compound: O=C1C(=O)c2ccccc2-c2ccccc21
property-label: pIC50
result: 4.77
//
compound: O=C(Nc1ccc2c(c1)C(=O)C(=O)c1ccccc1-2)c1cccs1
property-label: pIC50
result: > 5.00
//
compound: CCOC(=O)C(=O)Nc1ccc2c(c1)C(=O)C(=O)c1ccccc1-2
property-label: pIC50
result: > 6.00

Prompt: Value wanted: pIC50 (PTP1B (Homo sapiens, UniProt P18031)) of entry O=C(CNc1ccc2c(c1)C(=O)C(=O)c1ccccc1-2)OCc1ccccc1
Completion: > 6.00

Prompt: Value wanted: pIC50 (PTP1B (Homo sapiens, UniProt P18031)) of entry Cc1ccc(C(=O)Nc2ccc3c(c2)C(=O)C(=O)c2ccccc2-3)cc1
Completion: 6.63

Prompt: Value wanted: pIC50 (PTP1B (Homo sapiens, UniProt P18031)) of entry Nc1ccc2c(c1)C(=O)C(=O)c1ccccc1-2
Completion: 5.53

Prompt: Value wanted: pIC50 (PTP1B (Homo sapiens, UniProt P18031)) of entry CC(C)(C)C(=O)Nc1ccc2c(c1)C(=O)C(=O)c1ccccc1-2
Completion: 4.77

Prompt: Value wanted: pIC50 (PTP1B (Homo sapiens, UniProt P18031)) of entry O=C(O)C(=O)Nc1ccc2c(c1)C(=O)C(=O)c1ccccc1-2
Completion: 5.00 to 6.00

----------
test-target: PTEN (Homo sapiens)
method-summary: PTEN Inhibition Assay: IC50 Determinations
Format: biochemical
run-parameters: Table 28; read-out: PTEN IC50
property-label: IC50 (µM)
Express the result in µM but write the number alone.

Prompt: Value wanted: IC50 (PTEN (Homo sapiens)) of entry O=C1CC(S(=O)(=O)O)c2ccccc2C1=O (stereo not shown)
Completion: 20

----------
// reported inhibition at 250 µM for each item listed
test-target: PTEN (Homo sapiens)
method-summary: PTEN Inhibition Assay: General Screening
Type: biochemical
run-parameters: read-out: % Inhibition @ 250 uM
Express the result in % but write the number alone.

Use the examples below as a reference point.
molecule: Cc1ccc(C(=O)Nc2ccc3c(c2)C(=O)C(=O)c2ccccc2-3)cc1 [SF1779-000]
number: 99.8
//
molecule: O=C1C(=O)c2ccccc2-c2ccccc21 [SF1721-000]
number: 99.7

Prompt: Entry under review: O=C1C(=O)c2cc(NS(=O)(=O)c3ccc([N+](=O)[O-])cc3)ccc2-c2ccccc21 [SF1774-000] . Reported inhibition at 250 µM?
Completion: 98.6

Prompt: Entry under review: COc1cccc(OCC(=O)Nc2ccc3c(c2)C(=O)C(=O)c2ccccc2-3)c1 [SF1788-000] . Reported inhibition at 250 µM?
Completion: 96.9

Prompt: Entry under review: Cc1ccc(OCC(=O)Nc2ccc3c(c2)C(=O)C(=O)c2ccccc2-3)cc1 [SF1771-000] . Reported inhibition at 250 µM?
Completion: 99.2

Prompt: Entry under review: O=C(Nc1ccc2c(c1)C(=O)C(=O)c1ccccc1-2)c1cccs1 [SF1799-000] . Reported inhibition at 250 µM?
Completion: 99.4

Prompt: Entry under review: O=C1C(=O)c2cc([N+](=O)[O-])ccc2-c2ccccc21 [SF1722-000] . Reported inhibition at 250 µM?
Completion: 99.3

----------
test-target: PTEN (Homo sapiens, UniProt P60484)
Sequence (P60484 whole entry, species assumed): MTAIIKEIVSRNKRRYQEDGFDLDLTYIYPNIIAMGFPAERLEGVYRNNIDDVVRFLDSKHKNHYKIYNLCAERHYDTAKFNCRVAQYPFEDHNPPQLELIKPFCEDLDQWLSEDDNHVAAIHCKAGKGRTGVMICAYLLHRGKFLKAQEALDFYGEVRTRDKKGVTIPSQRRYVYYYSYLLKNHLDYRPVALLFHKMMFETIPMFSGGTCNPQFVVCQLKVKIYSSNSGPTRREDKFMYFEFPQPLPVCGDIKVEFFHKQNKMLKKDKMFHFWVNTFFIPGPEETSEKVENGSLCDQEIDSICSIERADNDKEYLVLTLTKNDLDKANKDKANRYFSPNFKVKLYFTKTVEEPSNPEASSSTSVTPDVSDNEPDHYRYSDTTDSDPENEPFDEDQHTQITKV
method-summary: PTEN Inhibition Assay: IC50 Determinations
Format: biochemical
run-parameters: Table 29; read-out: PTEN IC50
// reported IC50 for each item listed

Use the examples below as a reference point.
structure-smiles: O=C1C(=O)c2cc(NS(=O)(=O)c3ccc([N+](=O)[O-])cc3)ccc2-c2ccccc21
IC50: 214 nM
--
structure-smiles: CC(C)c1ccccc1OCC(=O)Nc1nonc1NC(=O)COc1ccccc1C(C)C
IC50: 66000 to 84000 nM

Let us examine a further case.
Prompt: Entry under review: O=C1Nc2ccc([N+](=O)[O-])cc2C1=O . Reported IC50?
Completion: 2200 nM

----------
test-target: PTEN (Homo sapiens, UniProt P60484)
method-summary: PTEN Inhibition Assay: IC50 Determinations
Type: biochemical
run-parameters: Table 1; read-out: PTEN Inhibition IC50
property-label: pIC50
To interpret pIC50, take it as minus log10 of a concentration measured in moles per litre.

Prompt: Entry under review: O=C1C(=O)c2cccnc2-c2ncccc21 [SF1720-000, 1,10-phenanthroline-5,6-dione] . Reported pIC50?
Completion: 5.30

----------
test-target: UniProtKB P18031
Sequence (P18031 1-435): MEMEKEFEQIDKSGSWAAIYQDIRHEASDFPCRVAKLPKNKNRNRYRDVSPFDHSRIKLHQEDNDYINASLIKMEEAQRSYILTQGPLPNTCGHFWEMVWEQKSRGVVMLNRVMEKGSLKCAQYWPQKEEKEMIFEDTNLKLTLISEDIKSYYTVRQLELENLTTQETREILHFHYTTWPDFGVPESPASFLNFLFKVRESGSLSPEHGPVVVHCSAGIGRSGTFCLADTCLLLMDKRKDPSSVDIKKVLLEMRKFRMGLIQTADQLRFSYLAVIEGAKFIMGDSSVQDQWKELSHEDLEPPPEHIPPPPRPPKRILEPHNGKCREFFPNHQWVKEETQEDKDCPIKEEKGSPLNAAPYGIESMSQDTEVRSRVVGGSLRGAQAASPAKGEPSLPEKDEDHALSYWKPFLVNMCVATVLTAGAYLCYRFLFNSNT
method-summary: PTP1B Inhibition Assay: IC50 Determinations
Type: biochemical
run-parameters: Table 29; read-out: PTP1B IC50
pIC50: −log10 of the molar value.
property-label: pIC50

Use the examples below as a reference point.
molecule: O=C1Nc2ccc(I)cc2C1=O
pIC50: > 5.00
--
molecule: O=C1Nc2ccc(Br)cc2C1O (stereo not drawn)
pIC50: > 5.00
--
molecule: O=C1C(=O)c2cccnc2-c2ncccc21
pIC50: < 3.60

Prompt: Entry under review: O=C(CCc1ccccc1[N+](=O)[O-])Nc1ccc2c(c1)C(=O)C(=O)N2 . Reported pIC50?
Completion: < 5.00

Prompt: Entry under review: CC(C)(C)c1ccc(C(=O)Nc2ccc3c(c2)C(=O)C(=O)c2ccccc2-3)cc1 . Reported pIC50?
Completion: > 6.00

Prompt: Entry under review: O=C1Nc2ccc(F)cc2C1=O . Reported pIC50?
Completion: 4.00 to 5.00

Prompt: Entry under review: O=C1CC(S(=O)(=O)O)c2ccccc2C1=O (stereo not drawn) . Reported pIC50?
Completion: < 3.60

Prompt: Entry under review: COc1ccccc1OCC(=O)Nc1ccc2c(c1)C(=O)C(=O)c1ccccc1-2 . Reported pIC50?
Completion: > 6.00

Prompt: Entry under review: O=C1Nc2ccc(Cl)cc2C1=O . Reported pIC50?
Completion: 4.00 to 5.00

Origin of measurements: patent US20070203098A1
